System: KM12 colon
Assay: NCI tumour cell line growth inhibition, 48 h
Assignment: determine reported TGI for the given compounds.

GET /value?item= C/C(=N\N(C)C)C(CN1CCCCC1)C(c1ccccc1)c1c(O)c2ccccc2oc1=O (stereo not given) &field=TGI returns > 100 µM

GET /value?item= COc1cc(/C=C2\CC3C4CCC5=CC(=O)CC[C@]5(C)C4CC[C@]3(C)C2=O)ccc1OCCCn1ccnc1 (stereo not given in full) &field=TGI returns 20 µM

GET /value?item= "COc1ccc(/C=C/C(=O)C(C)C)cc1" &field=TGI returns 98 µM

GET /value?item= "CCOC(=O)c1ccc2c(c1)c1c(C)c3ccncc3c(C)c1n2C" &field=TGI returns 2.58 µM

GET /value?item= CNC(=O)CCC(NC(=O)OC(C)(C)C)C(=O)NC(Cc1ccc(NC(=O)CCCCC(C)=O)cc1)C(=O)NCC(=O)NC (stereo not given) &field=TGI returns > 100 µM

###

Tested on: NCI-H226 lung
Experiment: NCI tumour cell line growth inhibition, 48 h
Quantity: TGI

Known value: NCI-H226 lung TGI of the molecule "O=c1oc2ccccc2c(O)c1/C=N/C(=S)Nc1ccccc1" equals > 100 µM

Known value: NCI-H226 lung TGI of the molecule O=P(O)(OP(=O)(O)c1ccccc1)c1ccccc1 (tested in a mixture with another compound) equals > 100 µM

Known value: NCI-H226 lung TGI of the molecule "O=S(=O)(O)c1ccc(N=Nc2ccc(N=Nc3c(O)ccc4cc(S(=O)(=O)O)ccc34)cc2)cc1" equals > 100 µM

Known value: NCI-H226 lung TGI of the molecule "CC1(C)CC(=O)C(Cc2ccccc2)(Cc2ccccc2)C(=O)C1" equals > 100 µM

Known value: NCI-H226 lung TGI of the molecule "O=C1Nc2c(Cl)cc(Cl)cc2/C1=N/N=C/c1ccccc1O" equals 74.6 µM

Known value: NCI-H226 lung TGI of the molecule Cc1[nH]c2c(C)cccc2c1C1Cc2ccccc2N1 (stereo not drawn) equals 57.1 µM

Known value: NCI-H226 lung TGI of the molecule "CON(C)C(=O)CCCO" equals > 100 µM

Known value: NCI-H226 lung TGI of the molecule COC(=O)C1=C(C)N2CCOC2(C)C(C(=O)OC)C1c1ccc[nH]1 (stereo not drawn) equals > 100 µM

Known value: NCI-H226 lung TGI of the molecule "C/C(=N\NC(=S)NCCNC(=S)N/N=C(\C)c1ccccn1)c1ccccn1" equals > 26.9 µM

Known value: NCI-H226 lung TGI of the molecule "O=C1CNc2cc(N3CCN(c4ccccc4)CC3)ccc2N1" equals > 100 µM

Known value: NCI-H226 lung TGI of the molecule "Cc1ccc(C[N+](C)(C)N)cc1C" equals > 10 µM

Known value: NCI-H226 lung TGI of the molecule "COc1cc(OC)cc(Oc2nc3cc(N)cc(N)c3nc2-c2ccccc2)c1" equals 43 µM

Known value: NCI-H226 lung TGI of the molecule "CC(C)(C)N=Cc1ccccc1[O-].CC(C)(C)N=Cc1ccccc1[O-].[Co+2]" equals > 100 µM

Known value: NCI-H226 lung TGI of the molecule "Cc1cccc(NC(=O)c2sc3nc4c(cc3c2N)CCCC4)c1" equals 73.5 µM

Known value: NCI-H226 lung TGI of the molecule Cc1cn(CCOCCOC(=O)NC(CCCN=C(N)N)C(=O)O)c(=O)[nH]c1=O (stereo not drawn) equals > 100 µM

Known value: NCI-H226 lung TGI of the molecule "CN1C(NN)=NS(=O)(=O)c2ccccc21" equals > 100 µM

Known value: NCI-H226 lung TGI of the molecule "CCOc1cc(NC(C)=O)ccc1C(=O)NN1C(=O)/C(=C/c2ccco2)N=C1c1ccccc1" equals > 100 µM

Known value: NCI-H226 lung TGI of the molecule "Cc1ncc(CCl)c2c1OC(C)(C)OC2" equals > 100 µM

###

Assignment: determine reported TGI for the given compounds.
System: SF-539 CNS
Experiment: NCI tumour cell line growth inhibition, 48 h

Known value: SF-539 CNS TGI of the compound "CC(C)=CCC[C@@H](C)C1=C(O)C(c2c(I)c(=O)n(C)c(=O)n2C)=C(C)C(=O)C1=O" equals > 100 µM

Known value: SF-539 CNS TGI of the compound "O=C1C=CC(=O)c2c1c1c(c3c2C2c4ccccc4C3c3ccccc32)C2c3ccccc3C1c1ccccc12" equals 11.5 µM

Known value: SF-539 CNS TGI of the compound "C[N+]1(C)C/C(=C/c2ccc(F)cc2)C(=O)/C(=C\c2ccc(F)cc2)C1" equals > 100 µM

Known value: SF-539 CNS TGI of the compound "C/C(CC(=O)Nc1ccccc1[N+](=O)[O-])=N\NC(N)=O" equals > 100 µM

Known value: SF-539 CNS TGI of the compound "COc1c(OCCCN2CCOCC2)ccc2c3n(c(=NC(=O)c4cnc(N)nc4)nc12)CCN3" equals 664 nM [middle of 4 runs]

###

Test system: SNB-75 CNS
Experiment: NCI tumour cell line growth inhibition, 48 h
Assignment: determine reported TGI for the given molecules.
Answer in µM, number only, no unit symbol.

GET /value?item= CCN1C/C(=C\c2cc(OC)c(OC)c(OC)c2)C2=NN(c3ccccc3)C(c3cc(OC)c(OC)c(OC)c3)C2C1 (stereo not drawn) &field=TGI returns 1.32

GET /value?item= "COC(=O)[C@@]12OC[C@]34[C@H]([C@@H](O)[C@@H]1O)[C@@]1(C)CC(=O)C(OC(C)=O)=C(C)[C@@H]1C[C@H]3OC(=O)[C@H](OC(=O)C=C(C)C)[C@@H]24" &field=TGI returns 4.45

GET /value?item= "CN(C)c1ccc2nc3ccc(=N)cc-3sc2c1" &field=TGI returns 15.4

GET /value?item= Cc1cc2c(cc1C)N1C(Cl)=C3CCCCC3=C(C#N)C1N2 (stereo not drawn) &field=TGI returns 56.9

GET /value?item= "CCCCC1=C(Br)C(=C(Br)Br)OC1=O" &field=TGI returns 16.5

GET /value?item= COc1ccccc1N1C(=O)C2C3c4ccccc4C(OC(C)=O)(c4ccccc43)C2C1=O (stereo not drawn) &field=TGI returns 38.8

GET /value?item= "COC(=O)c1c2c(c[n+]([O-])c1C)C(=O)C=C(NCc1ccccc1)C2=O" &field=TGI returns 0.309

GET /value?item= "CC#Cc1nc2ccccc2c(=O)[nH]1" &field=TGI returns 6.43

###

Test system: MCF7 breast
Test: NCI tumour cell line growth inhibition, 48 h; in the data active means GI50 below about 0.43 µM; inactive means the rest
Mark one answer only. Choices: label 1 = active, label 0 = inactive

Entry Cn1nc(-c2cccs2)cc1/N=C(\N)C(C)(C#N)Cc1ccccc1 (centres undefined) : call = ?
label 0

Entry "COc1ccc2c(CCC(c3ccccc3)c3ccccc3)c3[n+](cc2c1OC)CCc1cc2c(cc1-3)OCO2" : call = ?
label 0

Entry COC1C(CO)OC(n2c3ccccc3c3c4c(c5c6ccccc6[nH]c5c32)C(=O)NC4=O)C(OC(=O)C(N)CCCCN)C1O (centres undefined) : call = ?
label 1

Entry "O=C1C=CC(=O)c2c1c1c(c3c2C2c4ccccc4C3c3ccccc32)C2c3ccccc3C1c1ccccc12" : call = ?
label 0

Entry "CC#Cc1nc2ccccc2c(=O)[nH]1" : call = ?
label 0

Entry "Cc1cc(OCc2n[nH]c(=S)n2/N=C/c2ccc(F)cc2)ccc1Cl" : call = ?
label 0

Entry "CCN(CC)c1ccc(N=O)cc1" : call = ?
label 0

Entry "COc1cc2c3c(n(CCCN=[N+]=[N-])c(=O)c2cc1OC)-c1ccc(C#N)cc1C3=O" : call = ?
label 0

Entry "c1cc(N2CCCC2)c2nc(-c3[nH]ncc3Nc3ncnc4[nH]ccc34)[nH]c2c1" : call = ?
label 1

Entry "Nc1nc(-c2cccc3ccccc23)cc2ccccc12" : call = ?
label 1

Entry "Cc1cccc(NC(=O)c2sc3nc4c(cc3c2N)CCCC4)c1" : call = ?
label 0

Entry Nc1nc2c(c3cnccc13)C(c1cccc(Br)c1)Cc1cnccc1-2 (centres undefined) : call = ?
label 1

Entry "CCN1CCN(c2cc(C)nc(N(CCCNc3ccnc4cc(Cl)ccc34)Cc3cccs3)n2)CC1" : call = ?
label 0

Entry "CCOC(=O)c1cc(C(=O)c2ccc(Cl)cc2)n2ccc(-c3cc[n+](CC(=O)c4ccc(OC)cc4)cc3)cc12" : call = ?
label 0

Entry C=C(C)[C@@H]1CC[C@]2(CNCCO)CC[C@]3(C)[C@H](CC[C@@H]4[C@@]5(C)CCC(N)[C@@](C)(CO)[C@@H]5CC[C@]43C)[C@@H]12 (some centres undefined) : call = ?
label 0

Entry "Cc1c(NC(=O)c2cc(C(N)=O)nc3cc(F)ccc23)c(C(F)(F)F)nn1Cc1ccc(C#N)cc1" : call = ?
label 1

Entry "Nc1ccc2c(c1)Cc1cc(Cl)c(Cl)cc1-2" : call = ?
label 0

Entry "Cn1cc(C2=C(Sc3ccccc3)C(=O)NC2=O)c2ccccc21" : call = ?
label 0

Entry "COc1cc(OC)cc(Oc2nc3cc(N)cc(N)c3nc2-c2ccccc2)c1" : call = ?
label 0
